Below, each entry is listed with its recorded Population Normal (%).
- Test system: Fibroblast
- experimental-details: Multiplex assay against human fibroblast
- Assay type: toxicity, cell-based
- experimental-parameters: 12 h, 10 µM, compound concentration 10 uM, replicate 1
Please reply with the bare figure in % and do not write the unit itself.

Consider the reported Population Normal (%) for these molecules:
[
  {
    "molecule": "O=C(NCCNCC(O)COc1ccc(O)cc1)N1CCOCC1.O=C(NCCNCC(O)COc1ccc(O)cc1)N1CCOCC1.O=C(O)/C=C/C(=O)O (stereo not drawn) [XAMOTEROL FUMARATE]",
    "target": "Fibroblast",
    "Population Normal (%)": 95
  },
  {
    "molecule": "Cc1cc(=O)n(C)c2cc(N3C(=O)CC[C@H](NS(=O)(=O)CC(C)C)[C@H]3c3ccc(Cl)cc3)ccc12",
    "target": "Fibroblast",
    "Population Normal (%)": 96
  },
  {
    "molecule": "Cc1cc(-c2ccc3c(c2)CC[C@H]3N2CC3(CCN(C(=O)Cc4cn5cc(C)sc5n4)CC3)C2)ncn1",
    "target": "Fibroblast",
    "Population Normal (%)": 95
  },
  {
    "molecule": "CCc1nn2c(C)cc(C)nc2c1Cc1ccc(-c2nnc(C3CCNCC3)o2)cc1",
    "target": "Fibroblast",
    "Population Normal (%)": 94
  },
  {
    "molecule": "COCCCN1CCC(NC(=O)c2cc(Cl)c(N)c3c2OCC3)CC1 [PRUCALOPRIDE]",
    "target": "Fibroblast",
    "Population Normal (%)": 99
  },
  {
    "molecule": "C=CCN1C[C@H](C(=O)N(CCCN(C)C)C(=O)NCC)C[C@@H]2c3cccc4[nH]cc(c34)C[C@H]21",
    "target": "Fibroblast",
    "Population Normal (%)": 96
  },
  {
    "molecule": "CC(F)(F)CN1CCOc2c(nn(-c3ccccc3Cl)c2-c2ccc(Cl)cc2)C1=O",
    "target": "Fibroblast",
    "Population Normal (%)": 98
  }
]

Below: the item to evaluate.
Form field Population Normal (%) for item `CSc1nc(NC2CCCC2)c([N+](=O)[O-])c(NC2CCCC2)n1` on Fibroblast: 94

###

- Test system: Fibroblast
- experimental-details: Multiplex assay against human fibroblast
- Type: toxicity, cell-based
- experimental-parameters: 48 h, 10 µM, compound concentration 10 uM, replicate 1
property-measured: Population Pyknosed Nuclei (%)
Please reply with the bare figure in % and do not write the unit itself.

Consider the reported Population Pyknosed Nuclei (%) for these compounds:
[
  {
    "compound": "COC(c1ccccc1)(c1ccccc1)[C@H](Oc1nc(C)cc(C)n1)C(=O)O [AMBRISENTAN]",
    "Population Pyknosed Nuclei (%)": 13
  },
  {
    "compound": "CCCCC[C@H](O)/C=C/[C@H]1[C@H](O)CC(=O)[C@@H]1CCCCCCC(=O)O [ALPROSTADIL]",
    "Population Pyknosed Nuclei (%)": 26
  },
  {
    "compound": "N[C@](CC1c2ccccc2Oc2ccccc21)(C(=O)O)[C@H]1C[C@@H]1C(=O)O",
    "Population Pyknosed Nuclei (%)": 16
  },
  {
    "compound": "COc1cc(C(=O)N2CC[C@@H](O)[C@@H](N)C2)cc2nc(-c3cc4ccccc4n3CC3CC3)n(C)c12.Cl",
    "Population Pyknosed Nuclei (%)": 15
  },
  {
    "compound": "Nc1nc(CC(=O)Nc2ccc(CCNC[C@H](O)c3ccccc3)cc2)cs1 [MIRABEGRON]",
    "Population Pyknosed Nuclei (%)": 7
  },
  {
    "compound": "Cc1ccc(OCC(O)C(C)NC(C)C)c2c1CCC2.Cl (stereo not drawn)",
    "Population Pyknosed Nuclei (%)": 13
  }
]

Per the records, this compound ( Cc1c(Cc2ccc3ccccc3n2)c2cc(F)ccc2n1CC(=O)O [TIMAPIPRANT] ) has Population Pyknosed Nuclei (%) equal to 6

Per the records, this compound ( O=C(NCCNCC(O)COc1ccc(O)cc1)N1CCOCC1.O=C(NCCNCC(O)COc1ccc(O)cc1)N1CCOCC1.O=C(O)/C=C/C(=O)O (stereo not drawn) [XAMOTEROL FUMARATE] ) has Population Pyknosed Nuclei (%) equal to 11

Per the records, this compound ( `COc1cc2nc(N3CCN(C(=O)COc4c(OC)cccc4C(C)C)CC3)nc(N)c2cc1OC.Cl.Cl` ) has Population Pyknosed Nuclei (%) equal to 42
